Biological target: T1, human Ror2 (human, UniProt Q01974 34-403, limits assumed)
T1 construct: also called hROR2; receptor tyrosine kinase-like orphan receptor 2
T1 sequence (Q01974 34-403 limits assumed): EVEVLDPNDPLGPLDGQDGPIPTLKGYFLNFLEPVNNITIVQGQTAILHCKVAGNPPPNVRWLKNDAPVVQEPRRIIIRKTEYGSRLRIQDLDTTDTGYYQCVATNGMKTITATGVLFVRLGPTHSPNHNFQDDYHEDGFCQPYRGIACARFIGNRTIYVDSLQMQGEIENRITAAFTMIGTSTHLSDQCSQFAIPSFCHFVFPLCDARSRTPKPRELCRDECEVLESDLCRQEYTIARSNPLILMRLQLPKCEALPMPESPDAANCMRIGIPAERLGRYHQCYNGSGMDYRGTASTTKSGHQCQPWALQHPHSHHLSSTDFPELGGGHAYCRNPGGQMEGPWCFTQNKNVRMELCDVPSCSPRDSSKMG
Experiment: ELISA, human Ror2, pH 7.4
Quantity: Affinity ELISA pH 7.4
Form rule: numeric answer, no unit written next to it.

Binder	Affinity ELISA pH 7.4
HC-A097M (antibody, V domains shown) VH: EVQLQQSGPELVKPGASVKISCKTSGYTFTEYTMHWMKQSHRKSLEWIGGINTNNGGTGYNQKFKGKATLTVDKSSSTAYMELRSLTSEDSAVYFCMRGSLYSYGNSYFDYWGQGTLVTVSS VL: QIVLTQSPAIMSASPGEKVTITCSATSSVSYMHWFQQKPGTSPKLWIYGTSNLASGVPARFSGSGSGTSYSLTISRMEAEDAATYYCQQRSSYPFTFGQGTKVEIK	1.7

Attention now turns to another entry.
Affinity ELISA pH 7.4 for HC-D110L (antibody, V domains shown) VH: EVQLQQSGPELVKPGASVKISCKTSGYTFTEYTMHWMKQSHRKSLEWIGGINTNNGGTGYNQKFKGKATLTVDKSSSTAYMELRSLTSEDSAVYFCARGSLYSYGNSYFLYWGQGTLVTVSS VL: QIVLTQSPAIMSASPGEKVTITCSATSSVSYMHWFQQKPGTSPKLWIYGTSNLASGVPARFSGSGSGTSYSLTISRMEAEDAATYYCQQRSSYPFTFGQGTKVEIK is 1.4
